Reference source for all entries: PubChem BioAssay AID1963445

system: MCF7 complex spheroid growth, % test/control; assay: Anticancer human tumor MCF7 cell line growth inhibition [Asc]; conditions: second compound 0.3 µM; first compound 0.316 µM; active compounds read low;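 note: spheroids exposed to compounds for 7 days; 100% = DMSO vehicle control wells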
Entries and their measured viability, T/C follow.
// note: answer is a bare numeric in %

Solved cases below.
>  <molecule>
C#Cc1c(F)ccc2cc(O)cc(-c3ncc4c(N5CC6CCC(C5)N6)nc(OCC56CCCN5CC(F)C6)nc4c3F)c12 (stereo unspecified) + CCN1C(C(=O)NC23CCC(C(=O)O)(CC2)CC3)C(c2cccc(Cl)c2F)C2(C(=O)Nc3cc(Cl)ccc32)C12CCCCC2

>  <unit.annotation>
%

>  <test.result>
28.6

$$$$
>  <molecule>
C=CC(=O)N1CCN(c2nc(=O)n(-c3c(C)ccnc3C(C)C)c3nc(-c4c(O)cccc4F)c(F)cc23)C(C)C1 (stereo unspecified) + CCN1C(C(=O)NC23CCC(C(=O)O)(CC2)CC3)C(c2cccc(Cl)c2F)C2(C(=O)Nc3cc(Cl)ccc32)C12CCCCC2

>  <unit.annotation>
%

>  <test.result>
35.6

$$$$
>  <molecule>
CNC(C)C(=O)NC1CN(S(=O)(=O)c2cccc(S(=O)(=O)N3CCC4CCC(C(=O)NC(c5ccccc5)c5ccccc5)N4C(=O)C(NC(=O)C(C)NC)C3)c2)CCC2CCC(C(=O)NC(c3ccccc3)c3ccccc3)N2C1=O (stereo unspecified) + CCN1C(C(=O)NC23CCC(C(=O)O)(CC2)CC3)C(c2cccc(Cl)c2F)C2(C(=O)Nc3cc(Cl)ccc32)C12CCCCC2

>  <unit.annotation>
%

>  <test.result>
11

$$$$
>  <molecule>
CCN1CCN(Cc2ccc(Nc3ncc(F)c(-c4cc(F)c5nc(C)n(C(C)C)c5c4)n3)nc2)CC1 + CCN1C(C(=O)NC23CCC(C(=O)O)(CC2)CC3)C(c2cccc(Cl)c2F)C2(C(=O)Nc3cc(Cl)ccc32)C12CCCCC2

>  <unit.annotation>
%

>  <test.result>
34.5

$$$$

Identify viability, T/C associated with the molecule O=C(c1ccc(F)c(F)c1Nc1ccc(I)cc1F)N1CC(O)([C@@H]2CCCCN2)C1 + CCN1C(C(=O)NC23CCC(C(=O)O)(CC2)CC3)C(c2cccc(Cl)c2F)C2(C(=O)Nc3cc(Cl)ccc32)C12CCCCC2
33

// fetch viability, T/C given entry O=C(c1cc(Cc2n[nH]c(=O)c3ccccc23)ccc1F)N1CCN(C(=O)C2CC2)CC1 + CCN1C(C(=O)NC23CCC(C(=O)O)(CC2)CC3)C(c2cccc(Cl)c2F)C2(C(=O)Nc3cc(Cl)ccc32)C12CCCCC2
32.8

----------
test system: MCF7 complex spheroid growth, % test/control; test: Anticancer human tumor MCF7 cell line growth inhibition [Asc]; details: second compound 0.0316 µM; first compound 3.16 µM; active = viability on the fitted dose curve at most 10% of control; inactive = the rest;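 note: spheroids exposed to compounds for 7 days; 100% = DMSO vehicle control wells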
Pick one: active, inactive

>  <compound>
C#Cc1c(F)ccc2cc(O)cc(-c3ncc4c(N5CC6CCC(C5)N6)nc(OCC56CCCN5CC(F)C6)nc4c3F)c12 (configuration not stated) + CNC(C)C(=O)NC1CN(S(=O)(=O)c2cccc(S(=O)(=O)N3CCC4CCC(C(=O)NC(c5ccccc5)c5ccccc5)N4C(=O)C(NC(=O)C(C)NC)C3)c2)CCC2CCC(C(=O)NC(c3ccccc3)c3ccccc3)N2C1=O

>  <class.assignment>
active

$$$$

Let's switch to this compound now.
What did the test return for C=C(F)C(=O)N1CCN(c2nc(OCC3CCCN3C)nc3c2CCN(c2cccc4cccc(Cl)c24)C3)CC1CC#N (configuration not stated) + Cc1c(S(C)(=O)=O)c(-c2cc(F)cc(N3CCN(c4ccc(NS(=O)(=O)c5ccc(NC(CCN6CCC(C(=O)OCCCP(=O)(O)O)CC6)CSc6ccccc6)c(S(=O)(=O)C(F)(F)F)c5)cc4)CC3)c2)c(-c2ccc(Cl)cc2)n1C(C)C ?
inactive
